Each recorded value in this set is attributed to patent US20240116985A1.

subject-of-test: T1, full-length beta-Catenin (Uniprot ID P35222) (Homo sapiens (Human), UniProt P35222 2-781)
T1 construct: No tag is stated for the FP assay; also called bCat; B-Catenin
T1 sequence: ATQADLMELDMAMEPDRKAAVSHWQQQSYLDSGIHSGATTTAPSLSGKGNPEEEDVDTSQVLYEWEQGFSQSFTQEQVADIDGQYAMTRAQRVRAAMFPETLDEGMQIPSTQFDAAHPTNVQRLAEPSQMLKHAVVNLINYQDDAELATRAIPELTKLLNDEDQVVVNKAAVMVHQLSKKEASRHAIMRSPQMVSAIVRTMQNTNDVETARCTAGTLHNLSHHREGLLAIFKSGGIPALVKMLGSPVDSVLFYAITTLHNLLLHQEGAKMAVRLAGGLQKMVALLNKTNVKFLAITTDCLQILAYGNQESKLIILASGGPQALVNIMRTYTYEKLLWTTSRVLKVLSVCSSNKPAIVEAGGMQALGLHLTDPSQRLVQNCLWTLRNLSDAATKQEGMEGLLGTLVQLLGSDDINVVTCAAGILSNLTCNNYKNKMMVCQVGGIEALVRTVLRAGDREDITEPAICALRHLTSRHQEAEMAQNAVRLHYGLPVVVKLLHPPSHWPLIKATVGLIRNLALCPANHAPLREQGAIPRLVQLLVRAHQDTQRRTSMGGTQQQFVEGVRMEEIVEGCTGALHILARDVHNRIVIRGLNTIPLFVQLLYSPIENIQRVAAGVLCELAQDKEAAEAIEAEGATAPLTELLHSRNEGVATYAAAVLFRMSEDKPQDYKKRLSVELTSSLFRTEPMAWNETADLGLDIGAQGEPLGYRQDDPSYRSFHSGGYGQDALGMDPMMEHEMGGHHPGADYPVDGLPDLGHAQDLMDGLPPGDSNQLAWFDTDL
procedure-details: fluorescence polarization competition; full-length beta-catenin with 5FAM-TCF4(10-53) probe as competitor
Starred links: 1 amine or outer side, 2 acyl side, 3 side chain; linkers in the order of their positions; H or OH if unused. Positions of bridges follow the written chain, without caps; N, C: chain ends. Non-standard residues stand in square brackets, D forms with d. Primed or numbered codes have the meaning given here. B5(29) = 2-amino-2-(pent-4-en-1-yl)hept-6-enoic acid (2,2-bis(4-pentenyl)glycine), stitching residue bearing both staples, C=CCCCC(CCCC=C)(N[*:1])C(=O)[*:2]; B5(17) = 2,2-bis(4-pentenyl)glycine = 2-amino-2-(pent-4-en-1-yl)hept-6-enoic acid, stitching residue, C=CCCCC(CCCC=C)(N[*:1])C(=O)[*:2]; B5(6) = 2-amino-2-(pent-4-en-1-yl)hept-6-enoic acid (bis(4-pentenyl)glycine), stitching residue, C=CCCCC(CCCC=C)(N[*:1])C(=O)[*:2]; Bta = N[C@@H](Cc1csc2ccccc12)C(=O)O; αAllylPro = C=CC[C@@]1(C(=O)O)CCCN1; S8 = C=CCCCCCC[C@](C)(N)C(=O)O; hSer = N[C@@H](CCO)C(=O)O
parameter: IC50
# answer = value followed by unit

Before answering, review these 3 worked examples.
Task item: Identify measured IC50 associated with XDIXDEAAFQXFXN (not fully specified; Ac-PL3-Asp-Ile-B5-Asp-Glu-Ala-Ala-Phe-Gln-S8-Phe-BztA-Asn-NH2; N-terminal acetyl, C-terminal amide; PL3(1)-B5(4) and B5(4)-S8(11) stapled by olefin metathesis; BztA at 13, Stapled (stitched) peptide composition) [I-495]
Reply: 181 nM

Task item: Identify measured IC50 associated with Ac-[αAllylPro]DA[B5(6)][hSer]EAAFQ[S8]F[Bta]Q-NH2 (staple 1-4, 4-11; not fully specified; printed as Ac-PL3-Asp-Ala-B5-Hse-Glu-Ala-Ala-Phe-Gln-S8-Phe-BztA-Gln-NH2, Stapled peptide; this is the third eluting HPLC peak (staple isomer composition)) [I-498]
Reply: 5000 nM

Task item: Identify measured IC50 associated with Ac-[αAllylPro]DA[B5(17)][hSer]EAAFQ[S8]F[Bta]Q-NH2 (staple 1-4, 4-11; not fully specified; printed as Ac-PL3-Asp-Ala-B5-Hse-Glu-Ala-Ala-Phe-Gln-S8-Phe-BztA-Gln-NH2, Stapled peptide; this is the first eluting HPLC peak (staple isomer composition)) [I-496]
Reply: 5000 nM

Now, please, on to the next binder.
Task item: Identify measured IC50 associated with Ac-[αAllylPro]DT[B5(29)]DEAAFQ[S8]F[Bta]Q-NH2 (staple 1-4, 4-11, Stapled (stitched) peptide composition) [I-477]
Reply: 119 nM
